B1: HMOX1 (parent)
chain: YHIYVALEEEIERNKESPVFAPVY

Variants of: B1
assay.summary: protein stability index of a GFP-peptide fusion (GPS, HEK-293T) (PSI 1-6); higher = more stable;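 also: lentivirally expressed fusions sorted by FACS into six bins by GFP to DsRed ratio, PSI derived from sequencing read proportions per bin multiplied by bin number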
stated.conditions: c terminus: a fixed tail appended
Consider the following variants; for each one, report its protein stability index.
Simply state the number, no unit and no words.

// field: protein stability index; key: YHIYVALEEEIERNKMSPVFAPVY [E16M] ; value = 1.8

The recorded protein stability index for entry YHIYVALEEEIERNKESPVFAPKY [V23K] equals 2.09

Per the record, YHIYVALEEEIERNKESPVFAPVV [Y24V] has protein stability index of 2.51

Recorded protein stability index (variant YHEYVALEEEIERNKESPVFAPVY [I3E] ): 2.33

Given item YHIYVALEEEIERNKESPVFAPVS [Y24S] , the value recorded as its protein stability index is 2.84

This collection of values is drawn from the supplement of paper PMC10567573.
